Tested on: Enterococcus faecalis
Experiment: Minimum inhibitory concentration against Streptococcus faecalis MGH-2 in vitro.
Assay type: functional
Experimental Readout: MIC (µg/mL)
Return type: number; implicit unit µg/mL.

Requested field: MIC. Item: CC1COc2c(N3CCC(CN)C3)c(F)cc3c(=O)c(C(=O)O)cn1c23 (stereo not drawn) 0.1

Quick one: MIC for CC(C)NCC1CCN(c2cc3c(cc2F)c(=O)c(C(=O)O)cn3C2CC2)C1.Cl (stereo not drawn) ? 0.1

Name the recorded MIC for CCNCC1CCN(c2c(F)cc3c(=O)c(C(=O)O)cn4c3c2OCC4C)C1 (stereo not drawn) . 0.1

* * *

Would you mind telling me the reported MIC of each entry?
Tested on: Escherichia coli
Experiment: Minimum inhibitory concentration against Escherichia coli vogel in vitro.
Assay type: functional
# number only, unit µg/mL dropped from output

Query: MIC; subject: `Nc1c(N2CCNCC2)c(F)cc2c(=O)c(C(=O)O)cn(C3CC3)c12` 0.4

Request the reported MIC associated with CCNCC1CCN(c2c(F)cc3c(=O)c(C(=O)O)cn(C4CC4)c3c2F)C1 (stereo not drawn) [PD-117558] 0.05

// query MIC value for entry CC(C)NCC1CCN(c2cc3c(cc2F)c(=O)c(C(=O)O)cn3C2CC2)C1.Cl (stereo not drawn) 0.1

Which MIC reading was recorded for the compound Cl.NC1CCN(c2c(F)cc3c(=O)c(C(=O)O)cn(C4CC4)c3c2[N+](=O)[O-])C1 (stereo not drawn) ? 0.2

What measured MIC goes with CC1COc2c(N3CCC(N)C3)c(F)cc3c(=O)c(C(=O)O)cn1c23.Cl (stereo not drawn) ? 0.4

Suppose we examine the compound CCNCC1CCN(c2c(F)cc3c(=O)c(C(=O)O)cn4c3c2OCC4C)C1 (stereo not drawn) ; what MIC value has been reported? 0.1

Requested read-out: MIC. Entry: CNCC1CCN(c2c(F)cc3c(=O)c(C(=O)O)cn(C4CC4)c3c2F)C1 (stereo not drawn) 0.05

Data request, read-out MIC, for `Cl.O=C(O)c1cn(C2CC2)c2c([N+](=O)[O-])c(N3CCNCC3)c(F)cc2c1=O` 0.2

What value of measured MIC is listed for CCNCC1CCN(c2c(F)cc3c(=O)c(C(=O)O)cn(C4CC4)c3c2[N+](=O)[O-])C1.Cl (stereo not drawn) ? 0.4

// MIC lookup, key: CN(C)CC1CCN(c2nc3c(cc2F)c(=O)c(C(=O)O)cn3C2CC2)C1 (stereo not drawn) 0.05

May I ask what MIC has been recorded for CNCC1CCN(c2cc3c(cc2F)c(=O)c(C(=O)O)cn3C2CC2)C1 (stereo not drawn) ? 0.1

Requested read-out: MIC. Entry: NCC1CCN(c2cc3c(cc2F)c(=O)c(C(=O)O)cn3C2CC2)C1 (stereo not drawn) 0.05

// MIC lookup, key: NCC1CCN(c2c(F)cc3c(=O)c(C(=O)O)cn(C4CC4)c3c2F)C1 (stereo not drawn) 0.025

Find the recorded MIC belonging to `O=C(O)c1cn(C2CC2)c2c(Cl)c(N3CCNCC3)c(F)cc2c1=O` and report it. 0.025

Quick one: MIC for CC(C)NCC1CCN(c2nc3c(cc2F)c(=O)c(C(=O)O)cn3C2CC2)C1 (stereo not drawn) ? 0.2

# input compound: Cl.Nc1c(N2CCC(N)C2)c(F)cc2c(=O)c(C(=O)O)cn(C3CC3)c12 (stereo not drawn) ; wanted: its MIC 0.4

# query: MIC of entry CCNCC1CCN(c2c(F)cc3c(=O)c(C(=O)O)cn(C4CC4)c3c2Cl)C1 (stereo not drawn) 0.05

Query: MIC; subject: CN(C)CC1CCN(c2cc3c(cc2F)c(=O)c(C(=O)O)cn3C2CC2)C1 (stereo not drawn) 0.1
